Exercise: state measured cytotoxicity at 10 µM for each of the compounds provided.
# assay.notes: Toxicity liver stage against HepG2, at 10uM
# Format: cell-based
# Design: test concentration 10 uM, cell line HepG2-A16-CD81EGFP
# assay.context: human, HepG2-A16-CD81EGFP cells; read-out: INHIBITION
Give bare numbers, in %.

Some entries whose results are on file:
Cn1cc(C(=O)N2CCN(Cc3ccsc3)CC2)cn1; -10
CCc1cc(NCCCNS(C)(=O)=O)nc(-c2ccncc2)n1; 3.62
CN(CCOCC(F)(F)F)CC1CCN(CCO)CC1; 5.68
COc1ncccc1C(=O)N(C)Cc1nc(-c2ccccn2)no1; 3.38
Cc1nn(C)c2cnn(CC(=O)NCc3ccc4c(c3)OCO4)c12; 4.45
O=C(NCCc1c[nH]cn1)c1ccc2c(c1)C(=O)N(C1CC1)C2=O; 11.7

Here's the next entry for you.
Query :: Hello, please tell me recorded cytotoxicity at 10 µM for this one: `CN1CCN(C(=O)c2ccc(Cn3cc(Br)cn3)cc2)CC1`
Result :: -3.7

---

# assay.notes: Toxicity liver stage against HepG2, at 10uM
# Assay type: cell-based
# Set-up: test concentration 10 uM, cell line HepG2-A16-CD81EGFP
# assay.context: human, HepG2-A16-CD81EGFP cells; read-out: INHIBITION
For each entry below, report its cytotoxicity at 10 µM value.
Answers are plain numbers, in %.

Quick one: give me cytotoxicity at 10 µM for each item below, same order please.
1. O=S(=O)(C1CC1)N1CCOC2(CCCN(c3cccc(F)c3)C2)C1 (configuration not stated)
2. CN(c1ncccc1CNS(=O)(=O)N1CCOCC1)C1CCCCC1
3. COc1ccccc1CNC(=O)CN(C)C(C)c1nccs1 (configuration not stated)
4. Cn1ccc(C(=O)N2CCOC(c3ccc(C(N)=O)cn3)C2)n1 (configuration not stated)
5. COCCN1C(=O)C[C@H]2[C@H]1CCN2Cc1ccccc1
6. CCC[C@H]1CN(CCS(C)(=O)=O)C[C@@H]1NC(=O)c1cc(CC)on1

Result ::
[8.46, 6.39, 1.81, -20, -71.5, -2.42]

Query :: // Input: `CCc1cnc(N2CCN(Cc3ccon3)CC2)s1` . Output its cytotoxicity at 10 µM only.
Result :: 1.16

---

Answer each item with its documented cytotoxicity at 10 µM.
# assay.notes: Toxicity liver stage against HepG2, at 10uM
# Format: cell-based
# Set-up: test concentration 10 uM, cell line HepG2-A16-CD81EGFP
# assay.context: human, HepG2-A16-CD81EGFP cells; read-out: INHIBITION
One number for each entry, in %.

COc1ccc(C2=NOC(CC#N)C2)cc1 (centres undefined); 1.52
CN(C)c1cc(C2CCCN(S(=O)(=O)c3cn[nH]c3)C2)ccn1 (centres undefined); -0.24
CC(C)S(=O)(=O)N1CCCC(c2nccn2Cc2cccnc2)C1 (centres undefined); 3.72

Query compound follows.
Query :: Hello, please tell me recorded cytotoxicity at 10 µM for this one: `Cc1nc(-c2ccccc2)n(CC(=O)NC(C)(C)C)n1`
Result :: -16

---

# assay.notes: Toxicity liver stage against HepG2, at 10uM
# Format: cell-based
# Design: test concentration 10 uM, cell line HepG2-A16-CD81EGFP
# assay.context: human, HepG2-A16-CD81EGFP cells; read-out: INHIBITION
Hi there, I'd appreciate the recorded cytotoxicity at 10 µM for every entry that follows.
Give bare numbers, in %.

The following compounds have reported results that may help.
CS(=O)(=O)NCc1cc2n(n1)CCCN(Cc1cccc(C#N)c1)C2; -8.33
Cc1nc(-c2cc(C(=O)N3CCCN(C)CC3)c3ccccn23)cn1C; 5.59
Cn1ncc(N2CCOC(CCNC(=O)N3CCCCC3)C2)cc1=O (configuration not stated); -1.25
CC(C)[C@@H](C)NC(=O)N1CCn2nc(C(=O)NCCN(C)C)cc2C1; 2.62

Would you be so kind as to report cytotoxicity at 10 µM for each listed record?
1. COCCN1C[C@@H]2COC[C@@H](CC(=O)NCc3cccnc3)[C@@H]2C1
2. COc1ccc(OC2CCN(C(=O)[C@@H](N)Cc3c[nH]cn3)CC2)cc1
3. CS(=O)(=O)NCCNCc1ccc(Br)s1

Result ::
[12, 0.653, -3.04]

Kindly give each listed record's cytotoxicity at 10 µM.
1. Cc1ncc(C(=O)N2CCOC(C(=O)N3CCCCCC3)C2)c(C)n1 (configuration not stated)
2. COCC(C)NC(=O)c1cncc(Br)c1 (configuration not stated)
3. Cn1cc(C(=O)Nc2cccc(F)c2)ccc1=O
4. Cc1cc(C)c(C(=O)N2CCCC(O)(CN3CCCC3)C2)cc1C (configuration not stated)
5. CC(CO)(NC(=O)NCCc1ccc(Br)s1)C1CC1 (configuration not stated)

Result ::
1. 3.67
2. 3.73
3. -9.66
4. 8.4
5. -2.43
